Below: a set of entries, each annotated with reported IC50.
measured on: cdc2/cyclinB (Homo sapiens)
Sequence (P06493 whole entry): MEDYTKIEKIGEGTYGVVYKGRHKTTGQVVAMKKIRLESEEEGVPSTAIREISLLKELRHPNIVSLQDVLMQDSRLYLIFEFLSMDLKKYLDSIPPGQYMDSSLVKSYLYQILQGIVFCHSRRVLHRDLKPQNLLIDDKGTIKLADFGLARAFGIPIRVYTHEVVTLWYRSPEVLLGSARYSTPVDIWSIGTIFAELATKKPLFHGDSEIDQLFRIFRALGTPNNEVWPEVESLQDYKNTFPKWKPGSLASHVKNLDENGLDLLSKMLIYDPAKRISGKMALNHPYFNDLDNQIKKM
Sequence (P14635 whole entry, further chain): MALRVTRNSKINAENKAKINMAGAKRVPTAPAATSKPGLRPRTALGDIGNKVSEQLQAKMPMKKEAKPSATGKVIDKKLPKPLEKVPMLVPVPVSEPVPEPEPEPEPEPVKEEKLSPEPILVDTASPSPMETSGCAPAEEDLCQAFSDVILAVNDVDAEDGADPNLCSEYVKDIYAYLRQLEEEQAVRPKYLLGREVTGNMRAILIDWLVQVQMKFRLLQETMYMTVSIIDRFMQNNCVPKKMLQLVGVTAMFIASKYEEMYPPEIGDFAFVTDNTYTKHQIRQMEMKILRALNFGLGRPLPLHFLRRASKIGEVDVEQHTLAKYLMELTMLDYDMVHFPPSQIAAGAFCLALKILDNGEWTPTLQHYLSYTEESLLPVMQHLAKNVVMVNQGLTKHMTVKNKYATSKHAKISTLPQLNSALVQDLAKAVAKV
assay text: Cyclin-dependent kinase assay (cdc2/cyclinB)
condition context: Table 1; read-out: cdk1/B IC50

| structure string | meas value |
| --- | --- |
| Cn1c(=O)ccc2cnc(Nc3ccccc3)nc21 | 1.76 µM |

Complete the entry with IC50 for `CCn1c(=O)ccc2cnc(NC(C)C)nc21`
3.55 µM

Complete the entry with IC50 for `CCNc1ncc2ccc(=O)n(CC)c2n1`
9.23 µM

Complete the entry with IC50 for `CCn1c(=O)ccc2cnc(NC3CCCCC3)nc21`
2.61 µM

Complete the entry with IC50 for `O=c1ccc2cnc(Nc3ccccc3)nc2[nH]1`
32.6 µM

Complete the entry with IC50 for `CCCn1c(=O)ccc2cnc(Nc3ccccc3)nc21`
0.299 µM

Complete the entry with IC50 for `CCn1c(=O)ccc2cnc(Nc3ccc(N4CCN(C)CC4)cc3)nc21`
1.88 µM

###

measured on: cdk2/cyclinA (Homo sapiens)
assay text: Cyclin-dependent kinase assay (cdk2/cyclinA)
condition context: Table 1
measurement label: IC50

# example entries with known answers
| compound | IC50 |
| --- | --- |
| O=c1ccc2cnc(Nc3ccccc3)nc2n1C1CC2CCC1C2 (stereo not shown) | 75 nM |
| CCn1c(=O)ccc2cnc(Nc3ccccc3)nc21 | 129 nM |
| CCN(CC)CCOc1ccc(Nc2ncc3ccc(=O)n(C(C)C)c3n2)cc1 | 80 nM |

Complete the entry with IC50 for `Cn1c(=O)ccc2cnc(Nc3ccccc3)nc21`
490 nM

Complete the entry with IC50 for `CCCn1c(=O)ccc2cnc(Nc3ccccc3)nc21`
50 nM

Complete the entry with IC50 for `CCn1c(=O)ccc2cnc(NC3CCCCC3)nc21`
230 nM

Complete the entry with IC50 for `CCn1c(=O)ccc2cnc(Nc3ccc(N4CCN(C)CC4)cc3)nc21`
339 nM

Complete the entry with IC50 for `CCCCn1c(=O)ccc2cnc(Nc3ccccc3)nc21`
37 nM

Complete the entry with IC50 for `CCN(CC)c1ccc(Nc2ncc3ccc(=O)n(CC)c3n2)cc1`
2240 nM

Complete the entry with IC50 for `CCC(CC)n1c(=O)ccc2cnc(Nc3ccc(N4CCN(C)CC4)cc3)nc21`
28 nM

###

measured on: cdk2/cyclinE (Homo sapiens)
assay text: Cyclin-dependent kinase assay (cdk2/cyclinE)
condition context: Table 1; read-out: cdk2/E IC50
measurement label: pIC50
Keep in mind that pIC50 stands for -log10 of concentration in molar terms.

| compound | measurement label | meas value |
| --- | --- | --- |
| CCCCn1c(=O)ccc2cnc(Nc3ccccc3)nc21 [Example 40] | pIC50 | 7.24 |
| CC(C)n1c(=O)ccc2cnc(Nc3ccccc3)nc21 [Example 43] | pIC50 | 6.90 |
| O=c1ccc2cnc(Nc3ccccc3)nc2n1C1CCCCC1 [Example 131] | pIC50 | 6.90 |

Write pIC50 of CCN(CC)CCOc1ccc(Nc2ncc3ccc(=O)n(CC)c3n2)cc1 [Example 52] ; system used: cdk2/cyclinE (Homo sapiens)
5.63

Write pIC50 of O=c1ccc2cnc(Nc3ccccc3)nc2[nH]1 [Example 32] ; system used: cdk2/cyclinE (Homo sapiens)
4.89

###

measured on: mouse PDGF-β receptor tyrosine kinase (Mus musculus, UniProt P05622)
Construct: amplify a fragment of DNA that codes for the intracellular tyrosine kinase domain
Sequence (P05622 599-961 limits assumed): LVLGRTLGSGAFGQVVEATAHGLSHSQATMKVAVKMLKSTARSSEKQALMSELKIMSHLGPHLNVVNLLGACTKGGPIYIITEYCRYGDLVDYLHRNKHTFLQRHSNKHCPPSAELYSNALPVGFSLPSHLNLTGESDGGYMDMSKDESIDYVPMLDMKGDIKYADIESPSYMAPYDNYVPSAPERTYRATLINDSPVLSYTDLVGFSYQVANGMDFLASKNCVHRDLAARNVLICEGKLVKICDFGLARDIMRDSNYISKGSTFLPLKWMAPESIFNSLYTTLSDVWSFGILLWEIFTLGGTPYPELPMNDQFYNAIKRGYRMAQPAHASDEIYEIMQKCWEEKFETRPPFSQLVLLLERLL
assay text: PDGF receptor tyrosine kinase assay
condition context: Table 3
pIC50: −log10 of the molar value.
Returns MET if the recorded pIC50 is greater than or equal to 5, and NOT MET otherwise.

See these solved cases before continuing.
| compound | category |
| --- | --- |
| O=c1ccc2cnc(Nc3ccc(N4CCC(CCO)CC4)cc3)nc2n1C1CCCC1 [Example 196] | MET |
| CCN(CC)CCOc1ccc(Nc2ncc3ccc(=O)n(C4CCCCC4)c3n2)cc1C [Example 150] | MET |
| CC1CC(C)CN(c2ccc(Nc3ncc4ccc(=O)n(C5CCCCC5)c4n3)cc2)C1 (stereo not shown) [Example 167] | NOT MET |
| O=c1ccc2cnc(Nc3ccccc3)nc2n1C1CCCCC1 [Example 131] | NOT MET |

Decide: pIC50 of O=c1ccc2cnc(Nc3ccc(-n4cccn4)cc3)nc2n1C1CCCCC1 [Example 162] >= 5?
NOT MET

Decide: pIC50 of O=c1ccc2cnc(Nc3ccccc3)nc2n1C1CCCC1 [Example 108] >= 5?
MET

Decide: pIC50 of O=c1ccc2cnc(Nc3ccccc3)nc2n1C1CC2CCC1C2 (stereo not shown) [Example 180] >= 5?
NOT MET

Decide: pIC50 of CC(C)Cn1c(=O)ccc2cnc(Nc3ccccc3)nc21 [Example 42] >= 5?
MET

Decide: pIC50 of CCCn1c(=O)ccc2cnc(Nc3ccccc3)nc21 [Example 41] >= 5?
MET

Decide: pIC50 of CCn1c(=O)ccc2cnc(Nc3ccccc3)nc21 [Example 18] >= 5?
MET

###

Form: system (c-Src (Homo sapiens, UniProt P12931)), quantity (IC50), values below.
The response must be a number in µM with no trailing unit.

# example entries with known answers
| compound | unit of measure | IC50 |
| --- | --- | --- |
| CCn1c(=O)ccc2cnc(Nc3ccncc3)nc21 [Example 50] | µM | 15 |
| O=c1ccc2cnc(Nc3ccc(N4CCC(O)CC4)cc3)nc2n1C1CCCC1 [Example 198] | µM | 1.1 |

Complete the entry with IC50 for CN1CCN(c2ccc(Nc3ncc4ccc(=O)n(CCCOCc5ccccc5)c4n3)cc2)CC1 [Example 115]
0.545

Complete the entry with IC50 for O=c1ccc2cnc(Nc3ccccc3)nc2n1-c1ccccc1 [Example 101]
21.2

Complete the entry with IC50 for CCN(CC)CCOc1ccc(Nc2ncc3ccc(=O)n(C(C)C)c3n2)cc1 [Example 59]
4.43

###

measured on: cdk2/cyclinA (Homo sapiens)
assay text: Cyclin-dependent kinase assay (cdk2/cyclinA)
condition context: Table 1
Below: a set of entries, each annotated with reported IC50.
The response must be a number in nM with no trailing unit.

| molecule | IC50 [nM] |
| --- | --- |
| CCn1c(=O)ccc2cnc(Nc3ccc(OC)cc3)nc21 [Example 51] | 134 |
| CCn1c(=O)ccc2cnc(Nc3cccc(OC(F)(F)C(F)F)c3)nc21 [Example 54] | 238 |

Complete the entry with IC50 for CCn1c(=O)ccc2cnc(Nc3ccc(N(C)C)cc3)nc21 [Example 93]
280

Complete the entry with IC50 for O=c1ccc2cnc(Nc3ccccc3)nc2n1C1CCCCCC1 [Example 155]
9

Complete the entry with IC50 for CC(C)n1c(=O)ccc2cnc(Nc3ccc(N4CCN(C)CC4)cc3)nc21 [Example 60]
58

Complete the entry with IC50 for O=c1ccc2cnc(Nc3ccccc3)nc2[nH]1 [Example 32]
4660

Complete the entry with IC50 for CCn1c(=O)ccc2cnc(Nc3ccc(F)cc3)nc21 [Example 88]
440

Complete the entry with IC50 for O=c1ccc2cnc(Nc3ccccc3)nc2n1C1CCCC1 [Example 108]
12

Complete the entry with IC50 for CCn1c(=O)ccc2cnc(NCc3ccccc3)nc21 [Example 44]
6460

Complete the entry with IC50 for CCN(CC)CCOc1ccc(Nc2ncc3ccc(=O)n(CC)c3n2)cc1 [Example 52]
750

###

measured on: cdk4/D (Homo sapiens)
assay text: Cyclin-dependent kinase 4 (cdk4) enzyme assay, 32P incorporation into retinoblastoma
Type: biochemical
condition context: Table 1; 25 µM ATP, retinoblastoma substrate
Below: a set of entries, each annotated with reported IC50.
The response must be a number in µM with no trailing unit.

| structure string | measurement label | meas value |
| --- | --- | --- |
| O=c1ccc2cnc(Nc3ccccc3)nc2n1-c1ccccc1 | IC50 | 1.7 |
| CCC(CC)n1c(=O)ccc2cnc(Nc3ccc(N4CCN(C)CC4)cc3)nc21 | IC50 | 0.014 |
| CCn1c(=O)ccc2cnc(NC(C)(C)C)nc21 | IC50 | 5.3 |

Complete the entry with IC50 for `COCCn1c(=O)ccc2cnc(Nc3ccccc3)nc21`
2.4

Complete the entry with IC50 for `CC(C)Cn1c(=O)ccc2cnc(Nc3ccccc3)nc21`
0.4

###

measured on: cdk4/D (Homo sapiens, UniProt P11802)
Sequence (P11802 whole entry): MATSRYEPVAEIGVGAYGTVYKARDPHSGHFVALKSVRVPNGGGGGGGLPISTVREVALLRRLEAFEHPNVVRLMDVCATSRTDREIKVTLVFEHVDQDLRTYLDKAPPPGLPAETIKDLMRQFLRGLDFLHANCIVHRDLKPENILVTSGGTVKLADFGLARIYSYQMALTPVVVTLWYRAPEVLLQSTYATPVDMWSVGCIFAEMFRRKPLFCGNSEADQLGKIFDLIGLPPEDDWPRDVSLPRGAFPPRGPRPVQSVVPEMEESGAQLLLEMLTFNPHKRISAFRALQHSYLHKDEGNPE
Sequence (P24385 whole entry, further chain): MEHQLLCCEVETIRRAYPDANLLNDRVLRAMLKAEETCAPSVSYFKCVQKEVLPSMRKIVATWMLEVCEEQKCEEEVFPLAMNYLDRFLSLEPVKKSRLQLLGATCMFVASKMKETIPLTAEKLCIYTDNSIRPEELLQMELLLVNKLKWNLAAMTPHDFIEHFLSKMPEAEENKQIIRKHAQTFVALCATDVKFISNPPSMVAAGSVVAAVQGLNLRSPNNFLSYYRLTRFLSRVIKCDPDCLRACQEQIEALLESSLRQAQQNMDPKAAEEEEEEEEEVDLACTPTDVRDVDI
assay text: Cyclin-dependent kinase 4 (cdk4) enzyme assay, 32P incorporation into retinoblastoma
Assay type: biochemical
condition context: Table 1; 25 µM ATP, retinoblastoma substrate
Method: A typical assay, for instance, measures inhibitory activity against the cyclin D dependent kinase 4 enzyme (cdk4/D). […] The cdk 4 assay was carried out as follows. All components except the ATP were added to the wells, and the plate was placed on a plate mixer for 2 minutes. […] The wells were then washed five times with 0.2 mL of 10% TCA and ^32P incorporation was determined with a beta plate counter (Wallac Inc., Gaithersburg, MD).
measurement label: IC50 (µM)
The response must be a number in µM with no trailing unit.

| structure string | measured on | meas value |
| --- | --- | --- |
| CCn1c(=O)ccc2cnc(Nc3ccc(-c4ccccc4)cc3)nc21 | cdk4/D (Homo sapiens, UniProt P11802) | 2 |
| CC(C)Nc1ncc2ccc(=O)n(C)c2n1 | cdk4/D (Homo sapiens, UniProt P11802) | 25 |
| CCNc1ncc2ccc(=O)n(-c3ccccc3)c2n1 | cdk4/D (Homo sapiens, UniProt P11802) | 19 |
| CCn1c(=O)ccc2cnc(Nc3ccc(N4CCOCC4)cc3)nc21 | cdk4/D (Homo sapiens, UniProt P11802) | 0.3 |

Then there is this compound:
Complete the entry with IC50 for `CCn1c(=O)ccc2cnc(Nc3ccccc3)nc21`
0.752
